Reference source: ChEMBL document CHEMBL1201862

- System: SN12C
- EXPERIMENT_NOTES: NCI tumour cell line growth inhibition, 48 h
Calls of active or inactive are those of the source. Cut-off read from the data, not from the text of the source: active = GI50 up to about 1.1 µM and inactive = higher.
Listed molecules paired with reported GI50

O=C(O)C(CCc1ccccc1)N1C(=O)c2ccccc2C1=O (stereo not drawn) = > 100 µM (inactive)
CC(=O)O[C@@]12CO[C@@H]1C[C@@H](O)[C@@]1(C)C(=O)[C@H](O)C3=C(C)[C@@H](OC(=O)[C@H](O)[C@@H](NC(=O)c4ccccc4)c4ccccc4)C[C@@](O)([C@@H](OC(=O)c4ccccc4)C12)C3(C)C (stereo partly drawn) = 0.0184 µM (active)
O=C(CC1S/C(=N\c2ccccc2Cl)NC1=O)Nc1ccc(Cl)cc1 (stereo not drawn) = > 100 µM (inactive)

[ask] So what's the measured GI50 for this one? `Oc1ccccc1/C=N/c1nc2cc3sc(/N=C/c4ccccc4O)nc3cc2s1`
[reply] > 60.5 µM (inactive)

[ask] Here is the next molecule: `C=CCN1C(=O)/C(=C/c2cccs2)N=C1SC/C=C/C`
[reply] 26.3 µM (inactive)

[ask] Thanks! And C=C1C(=O)O[C@@H]2C[C@@H](C)[C@@H]3[C@@H](OC4OC(COC(C)=O)C(O)C(O)C4O)CC(=O)[C@@]3(C)C[C@H]12 (stereo partly drawn) ?
[reply] 1.54 µM (inactive)

[ask] Okay, and `CC1=NN(c2nc(N)nc(/C(C#N)=C/c3ccc([N+](=O)[O-])o3)n2)C(C)(C)C1` ?
[reply] 1.88 µM (inactive)

[ask] Follow-up entry: `COc1ccc(-c2cn3c(n2)sc2cc(C)ccc23)cc1`
[reply] 23.7 µM (inactive)

====

- Tested on: HOP-62
- EXPERIMENT_NOTES: NCI tumour cell line growth inhibition, 48 h
Calls of active or inactive are those of the source. Rule as the data show it: active = GI50 up to about 1.1 µM and inactive = higher.
Please reply with one of these outcomes: active, inactive

Use these answered entries as a reference point.
CC1(CNCc2ccccc2)CC(CCc2ccccc2)N(C(=O)c2ccc([N+](=O)[O-])cc2)C1Cc1ccc(O)cc1 (stereo unspecified) = inactive
Cc1cn(S(=O)(=O)c2ccccc2)c2c(OCc3ccccc3)cc([N+](=O)[O-])cc12 = inactive
CCOC(=O)COc1cccc2occc(=O)c12 = inactive
CCN1C(=O)c2ccccc2C1(O)c1ccc(Cl)cc1 (stereo unspecified) = inactive
CCOC(=O)CSc1nc(-c2ccccc2)c(C#N)c(=O)[nH]1 = inactive
COC1(c2ccccc2)N=C(S)NN=C1c1ccccc1 (stereo unspecified) = inactive
CN1C(=O)C(O)CC1c1cccc(C(F)(F)F)c1 (stereo unspecified) = inactive
Cc1cc2occ(S(=O)(=O)NC(=O)Nc3ccc(Cl)cc3)c(=O)c2c(=O)o1 = inactive

[ask] Recorded test outcome, item `O[C@H]1[C@H](O)[C@@H](O)[C@@]2(O)CC[C@@H]1N2`
[reply] inactive

[ask] Also `O=C(NNc1ccnc2cc(Cl)ccc12)/C(=C\c1ccccc1Cl)NC(=O)c1ccccc1` ?
[reply] inactive

[ask] Follow-up item: `COc1cc(OC)c(/C=C\c2ccnc3ccccc23)c(OC)c1`
[reply] inactive

[ask] Subsequent entry: CC1(C)CCC(=O)NC1CC(=O)CC1NC(=O)CCC1(C)C (stereo unspecified)
[reply] inactive

[ask] Then this compound: CC(=O)O[C@@H]1C2C(=O)OC(=O)C2C2CCC[C@]23O[C@H]13 (stereo partly specified)
[reply] inactive

[ask] // query: C=C1C(OC(=O)/C=C/c2ccccc2)CC(OC(C)=O)C2(C)C1CC1CC(OC(C)=O)C(C)=C(C(OC(C)=O)C2OC(C)=O)C1(C)C (stereo unspecified)
[reply] inactive

[ask] Let us now turn to `CN(CCN(C)C(=O)CCn1cc(F)c(=O)[nH]c1=O)C(=O)CCn1cc(F)c(=O)[nH]c1=O`
[reply] inactive

[ask] Param item: `CC(C)OC(=O)[C@@H]1OC(C)(C)O[C@H]1C(=O)OC(C)C`
[reply] inactive

[ask] Thanks! And `O=C1C[C@@H]2[C@@H](C=CC23CC3)N1O` ?
[reply] inactive

[ask] Query `CN(C)CCNC(=O)Cn1cnc2cccc([N+](=O)[O-])c2c1=O` next
[reply] inactive

[ask] Also, CC1C(O)Oc2cc3c(cc2C1c1ccccc1O)OCO3 (stereo unspecified) please.
[reply] inactive

[ask] Same again, this time with `COc1cc(NCc2ccc3n2-c2ccccc2OC3)cc(OC)c1OC`
[reply] inactive

[ask] Same question, `c1ccc(-c2cn3nc(N4CCOCC4)sc3n2)cc1` this time
[reply] inactive

[ask] Try this compound next: COc1nc(NC2OC(COC(C)=O)C(OC(C)=O)C(OC(C)=O)C2OC(C)=O)c(/N=C/C=N/c2c(NC3OC(COC(C)=O)C(OC(C)=O)C(OC(C)=O)C3OC(C)=O)nc(OC)[nH]c2=O)c(=O)[nH]1 (stereo unspecified)
[reply] inactive
